Measured Rinse H2O accompanies every entry in the list below.
Test system: Salmonella typhimurium on chicken skin
Test: Effect of surfactants on Salmonella attached to chicken skin, drumsticks (Tables F1-F4)
Conditions: 0.1%; 25° C.
measuredMetric: Rinse H2O (CFU/ml)

INSERT INTO assay_data (compound, measuredmetric, value) VALUES
  ('CCCCCCCCCCCC[n+]1ccccc1 [DPC, dodecylpyridinium chloride]', 'Rinse H2O', 0),
  ('CCCCCCCCCCCCCCCC[n+]1ccccc1 [CPC, cetylpyridinium chloride]', 'Rinse H2O', 0);

* * *

Test system: Salmonella typhimurium on chicken skin
Experiment: Effect of surfactants on Salmonella attached to chicken skin, drumsticks (Tables F1-F4)
Conditions: 0.5%; 4° C.
Measured Swabs, chicken legs producing the notated number of colonies accompanies every entry in the list below.
measuredMetric: Swabs, chicken legs producing the notated number of colonies

INSERT INTO results (molecule, targetorsystem, value) VALUES
  ('CC(C)(C)CC(C)(C)c1ccc(OCCOCC[N+](C)(C)Cc2ccccc2)cc1 [Benzethonium Chloride, reference compound]', 'Salmonella typhimurium on chicken skin', '8/10'),
  ('CCCCCCCCCCCCOS(=O)(=O)[O-].[Na+] [SDS, sodium dodecylsulfate, reference compound]', 'Salmonella typhimurium on chicken skin', '10/10'),
  ('C[C@H](CCC(=O)O)[C@H]1CC[C@H]2[C@@H]3CC[C@@H]4C[C@H](O)CC[C@]4(C)[C@H]3C[C@H](O)[C@]12C [Deoxycholic Acid, reference compound]', 'Salmonella typhimurium on chicken skin', '10/10'),
  ('CCCCCCCCCCCCCCCC[n+]1ccccc1 [CPC, cetylpyridinium chloride]', 'Salmonella typhimurium on chicken skin', '9/10');

* * *

Measured Swabs, chicken legs producing the notated number of colonies accompanies every entry in the list below.
System: Salmonella typhimurium on chicken skin
Assay: Effect of surfactants on Salmonella attached to chicken skin, drumsticks (Tables F1-F4)
Conditions: 1.0%; 25° C.
measuredMetric: Swabs, chicken legs producing the notated number of colonies

INSERT INTO assay_data (compound, value) VALUES
  ('CCCCCCCCCCCCCC[N+](C)(C)C.[Br-] [TTMAB, tetradecyltrimethylammonium bromide]', '0/10'),
  ('CCCCCCCCCCCCCCCC[N+](C)(C)C.[Br-] [HTMAB, hexadecyltrimethylammonium bromide]', '3/10'),
  ('CCCCCCCCCCCC[N+](C)(C)C.[Br-] [DTMAB, dodecyltrimethylammonium bromide]', '0/10'),
  ('CCCCCCCCCCCC[n+]1ccccc1 [DPC, dodecylpyridinium chloride]', '0/10');

* * *

Measured MIC accompanies every entry in the list below.
Test system: Salmonella typhimurium ATCC 14028
Test: Minimum growth inhibitory concentration, macrodilution
Format: cell-based
Conditions: Salmonella enterica, Mueler Hinton broth, macrodilution (NCCLS)
measuredMetric: MIC (µg/mL)

INSERT INTO assay_data (compound, measuredmetric, value) VALUES
  ('CCCCCCCCCCCC[N+](C)(C)C.[Br-] [DTMAB, dodecyltrimethylammonium bromide]', 'MIC', 156),
  ('CCCCCCCCCCCCCC[N+](C)(C)C.[Br-] [TTMAB, tetradecyltrimethylammonium bromide]', 'MIC', 64),
  ('O=C(O)CN(CCN(CC(=O)O)CC(=O)O)CC(=O)O [Na2 -EDTA, disodium ethylenectiaminetetraacetate, reference compound]', 'MIC', 625),
  ('CCCCCCCCCCCCCCCC[N+](C)(C)C.[Br-] [HTMAB, hexadecyltrimethylammonium bromide]', 'MIC', 64);

These entries and their values trace back to patent US5366983A.
